Listing of entries alongside the reported inhibition of growth at 0.18 µM.
System: Candida albicans
EXPERIMENT_SUMMARY: Antifungal activity against Candida albicans ATCC 90028 assessed as planktonic growth inhibition at 0.18 uM after 48 hrs by M27-A3 protocol based method relative to control
Type: functional
CONDITION_CONTEXT: ATCC 90028, 48 h, read-out: GI
Give your result in % as a bare value.

Here are 3 compounds together with their reported answers.
compound="Cc1ccc(C2CCCN2CCCn2nnc(-c3ccccc3)n2)cc1 (centres undefined)" property_label="inhibition of growth at 0.18 µM" recorded_value=99.3
compound="Cc1cccc(C2CCCN2CCCn2nnc(-c3ccccc3)n2)c1 (centres undefined)" property_label="inhibition of growth at 0.18 µM" recorded_value=99.4
compound="Fc1ccc(C2CCCN2CCCn2nnc(-c3ccccc3)n2)cc1 (centres undefined)" property_label="inhibition of growth at 0.18 µM" recorded_value=99.2

For record Cc1ccc(-c2nnn(CCCN3CCCC3c3ccccc3)n2)cc1 (centres undefined) the listed inhibition of growth at 0.18 µM is 99.8
